Test system: Rattus norvegicus
Assay: In vivo Area under curve (AUC) was determined after peroral administration of compound (19.01+/-0.31 mg/kg) in male Sprague-Dawley rat
Assay type: ADME, organism-based
Details: po
QUANTITY_NAME: AUC (ng·h/mL)
Answers are plain numbers, in ng·h/mL.

Request body: readout AUC, system Rattus norvegicus, query O=C(NC[C@H]1CN(c2ccc(C3CC[S+]([O-])CC3)c(F)c2)C(=O)O1)C(F)F (stereo partly specified) . Return the value.
6570

###

Assay: In vivo Volume distribution (Vss) was determined after intravenous administration of compound (9.13+/-0.85 mg/kg) in male Sprague-Dawley rat
Type: ADME, organism-based
Details: read-out: Vss
QUANTITY_NAME: Vd
Param answer (str): number followed by unit.

Find the recorded Vd belonging to O=C(NC[C@H]1CN(c2ccc(C3CC[S+]([O-])CC3)c(F)c2)C(=O)O1)C(F)F (stereo partly specified) and report it.
1.78 L/kg
